- Assayed target: human RORγ (Homo sapiens)
- Construct: human, NM_005060.3 and from Ser253 to Lys518; expressed in transfected cells; host or cells: CHO cells (transient co-transfection with pG5-Luc reporter)
- Sequence (P51449 253-518): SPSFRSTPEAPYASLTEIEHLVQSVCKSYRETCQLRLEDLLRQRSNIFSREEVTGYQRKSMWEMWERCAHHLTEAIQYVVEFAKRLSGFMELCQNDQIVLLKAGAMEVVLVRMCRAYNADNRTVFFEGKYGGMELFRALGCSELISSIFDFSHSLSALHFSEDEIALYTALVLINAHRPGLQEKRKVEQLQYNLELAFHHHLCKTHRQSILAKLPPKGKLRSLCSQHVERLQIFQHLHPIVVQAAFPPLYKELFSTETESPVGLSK
- Method: Luciferase reporter gene assay of inhibitory effect against RORγ transcriptional activity (GAL4-hRORγ plasmid in CHO cells)
- Assay type: cell-based
- Condition: read-out: LUC EC50 (μM) hRORg
Examples of compounds with documented EC50 follow.
Measure name: EC50

{"Compound": "C=CCC(CC(=O)Nc1ccc(C)cc1C)c1nnc(CCCC(C)(C)C)n1C1CC1 (racemic) [Example F-306]", "Assayed target": "human RORγ (Homo sapiens)", "Measure name": "EC50", "Observed": "< 3 µM"}
{"Compound": "CC(=O)N1C[C@H](C(=O)Nc2ccc(C)cc2C)[C@@H](c2nnc([C@H]3CC[C@H](C(C)C)CC3)n2C2CC2)C1 (racemic) [Example F-300]", "Assayed target": "human RORγ (Homo sapiens)", "Measure name": "EC50", "Observed": "< 3 µM"}
{"Compound": "Cc1ccc(NC(=O)CCc2nnc(CCCC(C)C)n2C2CC2)c(C)c1 [Example F-215]", "Assayed target": "human RORγ (Homo sapiens)", "Measure name": "EC50", "Observed": "< 3 µM"}
{"Compound": "CC(C)CCc1nnc(CCC(=O)Nc2cnc3ccccn23)n1C1CC1 [Example F-134]", "Assayed target": "human RORγ (Homo sapiens)", "Measure name": "EC50", "Observed": "> 3 µM"}
{"Compound": "Cc1c(Cl)cccc1NC(=O)CCc1nnc(CCOC(C)C)n1C1CC1 [Example F-218]", "Assayed target": "human RORγ (Homo sapiens)", "Measure name": "EC50", "Observed": "> 3 µM"}
{"Compound": "Cc1c(Cl)cccc1NC(=O)CCc1nnc(CCC2CCCNC2)n1C1CC1 (racemic) [Example F-189]", "Assayed target": "human RORγ (Homo sapiens)", "Measure name": "EC50", "Observed": "> 3 µM"}
{"Compound": "COc1ccc(NC(=O)CCc2nnc(CCC(C)C)n2C2CC2)c(C)c1 [Example F-82]", "Assayed target": "human RORγ (Homo sapiens)", "Measure name": "EC50", "Observed": "> 3 µM"}
{"Compound": "Cc1cccc(NC(=O)CCc2nnc(CCCC(C)C)n2C2CC2)c1C [Example F-216]", "Assayed target": "human RORγ (Homo sapiens)", "Measure name": "EC50", "Observed": "< 3 µM"}
{"Compound": "CC(C)(C)Cc1cc(-c2onc([C@@H](CCC(=O)O)CC(=O)Nc3ccc(F)cc3Cl)c2C2CC2)no1 [Example E-57]", "Assayed target": "human RORγ (Homo sapiens)", "Measure name": "EC50", "Observed": "< 3 µM"}
{"Compound": "CC(C)CCc1nnc(CCC(=O)NC[C@H](O)c2ccccc2)n1C1CC1 [Example F-103]", "Assayed target": "human RORγ (Homo sapiens)", "Measure name": "EC50", "Observed": "> 3 µM"}

Origin of values: patent US20160137639A1
